Source of measurements: patent US20240376097A1

Catalogue of compounds with associated log10 of IC50
Test system: RS4;11 (BCL-2 dependent acute lymphoblastic leukemia cell line)
Experiment: RS4;11 Cell Proliferation Assay
Format: cell-based
Conditions: Homo sapiens, RS4-11, RS4;11 cells, read-out: Cellular proliferation assay (IC50, nM) RS4
Measurement Name: log10 of IC50 (log10 of the value in nM)

Compound: [2H]C([2H])([2H])Oc1ccc(CN2CCN(C3CC4(C3)CN(c3ccc(C(=O)NS(=O)(=O)c5ccc(NC[C@H]6CC[C@](C)(O)CC6)c([N+](=O)[O-])c5)c(Oc5cnc6[nH]cc(F)c6c5)c3)C4)[C@H](c3ccccc3C(C)C)C2)cc1
Measurement: -0.92
--
Compound: CC(C)c1ccccc1C1CN(Cc2ccc3sccc3c2)CCN1C1CC2(CCN(c3ccc(C(=O)NS(=O)(=O)c4ccc(NC[C@H]5CC[C@](C)(O)CC5)c([N+](=O)[O-])c4)c(Oc4cnc5[nH]ccc5c4)c3)CC2)C1 (stereo partly shown)
Measurement: -0.13
--
Compound: COc1ccc(CN2CCN(C3CC4(CCN(c5ccc(C(=O)NS(=O)(=O)c6ccc(NCC7CCOCC7)c([N+](=O)[O-])c6)c(Oc6cnc7[nH]ccc7c6)c5)CC4)C3)C(c3ccccc3C)C2)cc1 (stereo not shown)
Measurement: 0.40
--
Compound: CC(C)c1ccccc1C1CN(Cc2ccc(OC3CC3)cc2)CCN1C1CC2(CCN(c3ccc(C(=O)NS(=O)(=O)c4ccc(NC[C@H]5CC[C@](C)(O)CC5)c([N+](=O)[O-])c4)c(Oc4cnc5[nH]ccc5c4)c3)CC2)C1 (stereo partly shown)
Measurement: -0.37
--
Compound: CCc1ccc(CN2CCN(C3CC4(CCN(c5ccc(C(=O)NS(=O)(=O)c6ccc(NC[C@H]7CC[C@](C)(O)CC7)c([N+](=O)[O-])c6)c(Oc6cnc7[nH]cc(F)c7c6)c5)CC4)C3)[C@H](c3ccccc3C(C)C)C2)cc1OC
Measurement: -0.66
--
Compound: [2H]C([2H])([2H])Oc1ccc(CN2CCN(C3CC4(CCN(c5ccc(C(=O)NS(=O)(=O)c6ccc(NC[C@H]7CC[C@](C)(O)CC7)c([N+](=O)[O-])c6)c(Oc6cnc7[nH]ccc7c6)c5)CC4)C3)C(c3ccccc3C(C)C)C2)cc1OC([2H])([2H])[2H] (stereo partly shown)
Measurement: -0.48
--
Compound: COc1ccc(CN2CCN(C3CC4(CCN(c5ccc(C(=O)NS(=O)(=O)c6ccc(NC[C@H]7CC[C@](C)(O)CC7)c([N+](=O)[O-])c6)c(Oc6cnc7[nH]ccc7c6)c5)CC4)C3)C(c3ccccc3C(C)C)C2)cc1OC(F)(F)F (stereo partly shown)
Measurement: 0.03
--
Compound: COc1cc(CN2CCN(C3CC4(C3)CN(c3ccc(C(=O)NS(=O)(=O)c5ccc(NC[C@H]6CC[C@](C)(O)CC6)c([N+](=O)[O-])c5)c(Oc5cnc6[nH]cc(F)c6c5)c3)C4)[C@H](c3ccccc3C(C)C)C2)ccc1N1CC(OC)C1
Measurement: -0.80
--
Compound: COc1cc(CN2CCN(C3CC4(C3)CN(c3ccc(C(=O)NS(=O)(=O)c5ccc(NC[C@H]6CC[C@](C)(O)CC6)c([N+](=O)[O-])c5)c(Oc5cnc6[nH]ccc6c5)c3)C4)[C@H](c3ccccc3C(C)C)C2)ccc1C(F)(F)F
Measurement: -0.70
--
Compound: CC(C)c1ccccc1[C@@H]1CN(Cc2ccc3c(c2)OCC3)CCN1C1CC2(CCN(c3ccc(C(=O)NS(=O)(=O)c4ccc(NC[C@H]5CC[C@](C)(O)CC5)c([N+](=O)[O-])c4)c(Oc4cnc5[nH]cc(F)c5c4)c3)CC2)C1
Measurement: -0.49
--
Compound: COc1ccc(C(=O)N2CCN(C3CC4(C3)CN(c3ccc(C(=O)NS(=O)(=O)c5ccc(NC[C@H]6CC[C@](C)(O)CC6)c([N+](=O)[O-])c5)c(Oc5cnc6[nH]cc(F)c6c5)c3)C4)[C@H](c3ccccc3C(C)C)C2)cc1
Measurement: -0.70
--
Compound: CC(C)c1ccccc1C1CN(Cc2cccc3c2CCCO3)CCN1C1CC2(CCN(c3ccc(C(=O)NS(=O)(=O)c4ccc(NC[C@H]5CC[C@](C)(O)CC5)c([N+](=O)[O-])c4)c(Oc4cnc5[nH]ccc5c4)c3)CC2)C1 (stereo partly shown)
Measurement: -0.47
--
Compound: CC(C)c1ccccc1C1CN(Cc2ccc3c(c2)OC(F)(F)O3)CCN1C1CC2(CCN(c3ccc(C(=O)NS(=O)(=O)c4ccc(NC[C@H]5CC[C@](C)(O)CC5)c([N+](=O)[O-])c4)c(Oc4cnc5[nH]ccc5c4)c3)CC2)C1 (stereo partly shown)
Measurement: -0.32
--
Compound: COc1cc(CN2CCN(C3CC4(CCN(c5ccc(C(=O)NS(=O)(=O)c6ccc(NC[C@H]7CC[C@](C)(O)CC7)c([N+](=O)[O-])c6)c(Oc6cnc7[nH]cc(F)c7c6)c5)CC4)C3)[C@H](c3ccccc3C(C)C)C2)ccc1C1CC1
Measurement: -0.96
--
Compound: COc1ccc(CN2CCN(C3CC4(CCN(c5ccc(C(=O)NS(=O)(=O)c6ccc(NC[C@H]7CC[C@](C)(O)CC7)c([N+](=O)[O-])c6)c(Oc6cnc7[nH]ccc7c6)c5)CC4)C3)[C@@H](c3ccccc3C(C)C)C2)cc1 [Example 19b]
Measurement: 0.83
--
Compound: COc1cc(CN2CCN(C3CC4(C3)CN(c3ccc(C(=O)NS(=O)(=O)c5ccc(NC[C@H]6CC[C@](C)(O)CC6)c([N+](=O)[O-])c5)c(Oc5cnc6[nH]ccc6c5)c3)C4)[C@H](c3ccccc3C(C)C)C2)cc2c1OCCC2
Measurement: -0.70

---

Target: recombinant human Bcl-2 D103Y protein (Homo sapiens (Human), UniProt P10415, D103Y)
Sequence (P10415 whole entry D103Y): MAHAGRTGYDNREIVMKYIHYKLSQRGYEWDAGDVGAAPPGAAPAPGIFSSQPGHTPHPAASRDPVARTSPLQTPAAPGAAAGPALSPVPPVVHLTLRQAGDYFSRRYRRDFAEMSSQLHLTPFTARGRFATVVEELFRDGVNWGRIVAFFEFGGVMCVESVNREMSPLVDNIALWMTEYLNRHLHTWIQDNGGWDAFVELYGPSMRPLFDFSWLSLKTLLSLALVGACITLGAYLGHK
Assay: Bcl-2-D103Y Biochemical Assay (TR-FRET)
Settings: TR-FRET, FITC labeled Bak peptide
Measured IC50 values are reported for all entries that follow.

Compound: CC(C)c1ccccc1C1CN(CCc2ccccc2)CCN1C1CC2(CCN(c3ccc(C(=O)NS(=O)(=O)c4ccc(NC[C@H]5CC[C@](C)(O)CC5)c([N+](=O)[O-])c4)c(Oc4cnc5[nH]ccc5c4)c3)CC2)C1 (stereo partly shown)
IC50 / nM: 0.51

Compound: COc1cc(CN2CCN(C3CC4(C3)CN(c3ccc(C(=O)NS(=O)(=O)c5ccc(NCC6CCOCC6)c([N+](=O)[O-])c5)c(Oc5cnc6[nH]cc(F)c6c5)c3)C4)[C@H](c3ccccc3C(C)C)C2)ccc1C1CC1
IC50 / nM: 0.52

Compound: CC(C)c1ccccc1C1CN(Cc2ccc3c(c2)CCCO3)CCN1C1CC2(CCN(c3ccc(C(=O)NS(=O)(=O)c4ccc(NC[C@H]5CC[C@](C)(O)CC5)c([N+](=O)[O-])c4)c(Oc4cnc5[nH]ccc5c4)c3)CC2)C1 (stereo partly shown)
IC50 / nM: 0.38

Compound: CC(C)c1ccccc1C1CN(Cc2cnn(C)c2)CCN1C1CC2(CCN(c3ccc(C(=O)NS(=O)(=O)c4ccc(NC[C@H]5CC[C@](C)(O)CC5)c([N+](=O)[O-])c4)c(Oc4cnc5[nH]ccc5c4)c3)CC2)C1 (stereo partly shown) [Example 22]
IC50 / nM: 0.12

---

# IC50 values compiled below
Molecular target: Recombinant human Bcl-2 protein (Homo sapiens (Human))
Sequence (P10415 whole entry): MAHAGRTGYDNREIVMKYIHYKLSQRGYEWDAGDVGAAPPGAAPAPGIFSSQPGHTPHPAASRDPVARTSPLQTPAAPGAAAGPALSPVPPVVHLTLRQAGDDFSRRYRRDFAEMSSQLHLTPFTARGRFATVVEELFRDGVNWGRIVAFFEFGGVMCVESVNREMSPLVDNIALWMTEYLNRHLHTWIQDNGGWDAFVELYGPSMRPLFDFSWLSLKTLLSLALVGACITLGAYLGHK
Test: Bcl-2 TR-FRET Assay
Type: binding
Settings: wild type Bcl-2; unit inferred; read-out: Bcl-2 WT

Molecule: COc1cc(CN2CCN(C3CC4(C3)CN(c3ccc(C(=O)NS(=O)(=O)c5ccc(NC[C@H]6CC[C@](C)(O)CC6)c([N+](=O)[O-])c5)c(Oc5cnc6[nH]ccc6c5)c3)C4)[C@H](c3ccccc3C(C)C)C2)ccc1C1CC1 [Example 233]
Scale Unit: nM
IC50: 0.43

Molecule: COc1ccc(CN2CCN(C3CC4(CCN(c5ccc(C(=O)NS(=O)(=O)c6ccc(NC[C@H]7CC[C@](C)(O)CC7)c([N+](=O)[O-])c6)c(Oc6cnc7[nH]ccc7c6)c5)CC4)C3)C(c3ccccc3C3CC3)C2)cc1 (stereo partly shown) [Example 73]
Scale Unit: nM
IC50: 0.06

Molecule: CC(C)c1ccccc1[C@@H]1CN(Cc2ccc(Cl)cc2)CCN1C1CC2(CCN(c3ccc(C(=O)NS(=O)(=O)c4ccc(NC[C@H]5CC[C@](C)(O)CC5)c([N+](=O)[O-])c4)c(Oc4cnc5[nH]ccc5c4)c3)CC2)C1 (single isomer, unassigned) [Example 29a]
Scale Unit: nM
IC50: 0.2

Molecule: CC(C)c1ccccc1[C@@H]1CN(Cc2ccc(F)c(F)c2)CCN1C1CC2(CCN(c3ccc(C(=O)NS(=O)(=O)c4ccc(NC[C@H]5CC[C@](C)(O)CC5)c([N+](=O)[O-])c4)c(Oc4cnc5[nH]ccc5c4)c3)CC2)C1 (single isomer, unassigned) [Example 52a]
Scale Unit: nM
IC50: 0.16
